The reported measurements were obtained from ChEMBL document CHEMBL1124420.

# experiment_notes: Antiviral activity against HIV I strain (LAV) in human peripheral blood mononuclear (PBM) cells; Range is 68.3 - 79.9
# Format: functional
measured_property: pEC50
By convention, pEC50 is the negative base-10 log of a molar concentration.

Input: Give the reported value of pEC50 for this record: O=c1ccn([C@H]2C=C[C@@H](CO)O2)c(=O)[nH]1
Output: 4.17

====

# experiment_notes: Antiviral activity against HIV-1 in human peripheral blood mononuclear (PBM) cells
# Assay type: functional
# study_conditions: read-out: ED50 (the source's name)
measured_property: pEC50
As a rule, pEC50 stands for the negative log10 of the concentration, concentration in M.

Input: Output measured pEC50 for this item: [N-]=[N+]=N[C@H]1C[C@H](n2ccc(=O)[nH]c2=O)O[C@@H]1CO
Output: 6.75
